This listing pairs compounds with measured LD50 at 336 h.
# Test Method Notes: Determination of the indicative toxicity
# Study Conditions: mouse, in vivo, ip; 3xip,q3d (three intraperitoneal administrations, 3 days interval); survival day 14
Assay Readout: LD50 at 336 h

[[record]]
compound = "CC[C@@]1(O)C[C@H](O[C@H]2C[C@H](N(C)Cc3ccncc3)[C@H](O)[C@H](C)O2)c2c(O)c3c(c(O)c2[C@H]1O)C(=O)c1cccc(O)c1C3=O"
assay_readout = "LD50 at 336 h"
recorded_result = "2.5 to 5 mg/kg"

[[record]]
compound = "COc1cccc2c1C(=O)c1c(O)c3c(c(O)c1C2=O)C[C@@](O)(C(=O)CO)C[C@@H]3O[C@H]1C[C@H](N)[C@H](O)[C@H](C)O1 [Adriamycin, reference compound]"
assay_readout = "LD50 at 336 h"
recorded_result = "2.7 mg/kg"

[[record]]
compound = "CC[C@@]1(O)C[C@H](O[C@H]2C[C@H](N(C)Cc3ccco3)[C@H](O)[C@H](C)O2)c2c(O)c3c(c(O)c2[C@H]1O)C(=O)c1cccc(O)c1C3=O"
assay_readout = "LD50 at 336 h"
recorded_result = "1 to 5 mg/kg"

[[record]]
compound = "C=CCN(C)[C@H]1C[C@H](O[C@H]2C[C@](O)(CC)[C@H](O)c3c(O)c4c(c(O)c32)C(=O)c2c(O)ccc(O)c2C4=O)O[C@@H](C)[C@H]1O"
assay_readout = "LD50 at 336 h"
recorded_result = "> 6 mg/kg"

[[record]]
compound = "CC[C@@]1(O)C[C@H](O[C@H]2C[C@H](N(C)CC(N)=O)[C@H](O)[C@H](C)O2)c2c(O)c3c(c(O)c2[C@H]1O)C(=O)c1cccc(O)c1C3=O"
assay_readout = "LD50 at 336 h"
recorded_result = "2 to 5 mg/kg"

[[record]]
compound = "C=CCN(C)[C@H]1C[C@H](O[C@H]2C[C@](O)(CC)[C@H](O)c3c(O)c4c(c(O)c32)C(=O)c2c(O)cccc2C4=O)O[C@@H](C)[C@H]1O"
assay_readout = "LD50 at 336 h"
recorded_result = "1 to 5 mg/kg"

[[record]]
compound = "CC[C@@]1(O)C[C@H](O[C@H]2C[C@H](N(C)CCO)[C@H](O)[C@H](C)O2)c2c(O)c3c(c(O)c2[C@H]1O)C(=O)c1cccc(O)c1C3=O"
assay_readout = "LD50 at 336 h"
recorded_result = "0.2 to 1 mg/kg"

[[record]]
compound = "CCOC(=O)CN(C)[C@H]1C[C@H](O[C@H]2C[C@](O)(CC)[C@H](O)c3c(O)c4c(c(O)c32)C(=O)c2c(O)cccc2C4=O)O[C@@H](C)[C@H]1O"
assay_readout = "LD50 at 336 h"
recorded_result = "10 to 25 mg/kg"


###

# Tested on: L1210 mouse leukemia cells
# Test Method Notes: Formation of colonies of L1210 leukemia cells in soft agar (cytotoxicity in vitro)
# Format: cell-based
# Study Conditions: Mus musculus; 1 h incubation, then 7 days, L1210 colonies in agar; read-out: IC50, 1 h incubation
Class boundaries, taken from values of IC50, are as follows: band A: < 0.06 µg/mL; band B: ≥ 0.06 µg/mL and < 0.2 µg/mL; band C: ≥ 0.2 µg/mL

[[record]]
molecule = "CC[C@@]1(O)C[C@H](O[C@H]2C[C@H](N(C)Cc3ccncc3)[C@H](O)[C@H](C)O2)c2c(O)c3c(c(O)c2[C@H]1O)C(=O)c1cccc(O)c1C3=O"
assigned_label = "band B"

[[record]]
molecule = "CC[C@@]1(O)C[C@H](O[C@H]2C[C@H](N(C)Cc3ccccn3)[C@H](O)[C@H](C)O2)c2c(O)c3c(c(O)c2[C@H]1O)C(=O)c1cccc(O)c1C3=O"
assigned_label = "band C"

[[record]]
molecule = "CC[C@@]1(O)C[C@H](O[C@H]2C[C@H](N(C)CCO)[C@H](O)[C@H](C)O2)c2c(O)c3c(c(O)c2[C@H]1O)C(=O)c1cccc(O)c1C3=O"
assigned_label = "band A"

[[record]]
molecule = "COc1cccc2c1C(=O)c1c(O)c3c(c(O)c1C2=O)C[C@@](O)(C(=O)CO)C[C@@H]3O[C@H]1C[C@H](N)[C@H](O)[C@H](C)O1 [Adriamycin, reference compound]"
assigned_label = "band A"

[[record]]
molecule = "CC[C@@]1(O)C[C@H](O[C@H]2C[C@H](N(C)Cc3cccs3)[C@H](O)[C@H](C)O2)c2c(O)c3c(c(O)c2[C@H]1O)C(=O)c1cccc(O)c1C3=O"
assigned_label = "band C"

[[record]]
molecule = "C=CCN(C)[C@H]1C[C@H](O[C@H]2C[C@](O)(CC)[C@H](O)c3c(O)c4c(c(O)c32)C(=O)c2c(O)ccc(O)c2C4=O)O[C@@H](C)[C@H]1O"
assigned_label = "band C"

[[record]]
molecule = "C=CCN(C)[C@H]1C[C@H](O[C@H]2C[C@](O)(CC)[C@H](O)c3c(O)c4c(c(O)c32)C(=O)c2c(OC)cccc2C4=O)O[C@@H](C)[C@H]1O"
assigned_label = "band C"

[[record]]
molecule = "CC[C@@]1(O)C[C@H](O[C@H]2C[C@H](N(C)CC(N)=O)[C@H](O)[C@H](C)O2)c2c(O)c3c(c(O)c2[C@H]1O)C(=O)c1cccc(O)c1C3=O"
assigned_label = "band C"

[[record]]
molecule = "CC[C@@]1(O)C[C@H](O[C@H]2C[C@H](N(C)CC(C)=O)[C@H](O)[C@H](C)O2)c2c(O)c3c(c(O)c2[C@H]1O)C(=O)c1cccc(O)c1C3=O"
assigned_label = "band B"

[[record]]
molecule = "CC[C@@]1(O)C[C@H](O[C@H]2C[C@H](N(C)Cc3ccco3)[C@H](O)[C@H](C)O2)c2c(O)c3c(c(O)c2[C@H]1O)C(=O)c1cccc(O)c1C3=O"
assigned_label = "band A"

[[record]]
molecule = "C#CCN(C)[C@H]1C[C@H](O[C@H]2C[C@](O)(CC)[C@H](O)c3c(O)c4c(c(O)c32)C(=O)c2c(O)cccc2C4=O)O[C@@H](C)[C@H]1O"
assigned_label = "band C"


###

# Test Method Notes: Determination of the indicative toxicity
# Study Conditions: mouse, in vivo; 3xiv,q3d (three intravenous administrations, 3 days interval); survival day 14
Known LD50 at 336 h of a selection of molecules
Assay Readout: LD50 at 336 h

[[record]]
molecule = "C#CCN(C)[C@H]1C[C@H](O[C@H]2C[C@](O)(CC)[C@H](O)c3c(O)c4c(c(O)c32)C(=O)c2c(O)cccc2C4=O)O[C@@H](C)[C@H]1O [Compound 2]"
recorded_result = "2 to 5 mg/kg"

[[record]]
molecule = "CC[C@@]1(O)C[C@H](O[C@H]2C[C@H](N(C)CC3CO3)[C@H](O)[C@H](C)O2)c2c(O)c3c(c(O)c2[C@H]1O)C(=O)c1c(O)ccc(O)c1C3=O (stereo partly drawn) [Compound 14m]"
recorded_result = "0.3 to 0.75 mg/kg"

[[record]]
molecule = "CC[C@@]1(O)C[C@H](O[C@H]2C[C@H](N(C)Cc3ccsc3)[C@H](O)[C@H](C)O2)c2c(O)c3c(c(O)c2[C@H]1O)C(=O)c1cccc(O)c1C3=O [Compound 12]"
recorded_result = "2 to 5 mg/kg"


Taken from patent US5260425A.
